Positions of bridges follow the written chain, without caps; N, C: chain ends. Non-standard residues stand in square brackets, D forms with d. Residues, ends and D or L forms follow the SMILES beside them. Chains are numbered I, II in the order given. Nva = CCC[C@H](N)C(=O)O
Neuropeptide Y receptor type 4 (Homo sapiens): recorded Ki for assorted compounds
Sequence (P50391 whole entry): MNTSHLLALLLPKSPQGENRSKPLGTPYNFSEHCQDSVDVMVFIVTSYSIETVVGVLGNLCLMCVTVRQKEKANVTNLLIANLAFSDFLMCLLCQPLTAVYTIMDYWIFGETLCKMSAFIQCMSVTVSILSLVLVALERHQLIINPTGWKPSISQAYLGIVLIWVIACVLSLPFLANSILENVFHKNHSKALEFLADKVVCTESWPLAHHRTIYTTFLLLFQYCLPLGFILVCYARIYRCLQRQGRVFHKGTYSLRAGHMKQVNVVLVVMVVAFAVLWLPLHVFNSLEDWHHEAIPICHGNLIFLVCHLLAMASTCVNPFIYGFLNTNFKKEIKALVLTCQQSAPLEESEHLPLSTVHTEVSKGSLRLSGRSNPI
Answer in nM, number only, no unit symbol.

Consider the reported Ki for these compounds:
Form field: reported Ki of CCC[C@H](NC(=O)[C@H](CCCN=C(N)N)NC(=O)[C@H](Cc1c[nH]c2ccccc12)NC(=O)[C@@H](N)CCCC[C@H](N)C(=O)N[C@@H](Cc1c[nH]c2ccccc12)C(=O)N[C@@H](CCCN=C(N)N)C(=O)N[C@@H](CCC)C(=O)N[C@@H](CCCN=C(N)N)C(=O)N[C@@H](Cc1ccc(O)cc1)C(N)=O)C(=O)N[C@@H](CCCN=C(N)N)C(=O)N[C@@H](Cc1ccc(O)cc1)C(N)=O (stereo in doubt; 4B)
2

// repeat for `CC(C)C[C@H](NC(=O)[C@H](CCCN=C(N)N)NC(=O)[C@H](Cc1ccc(O)cc1)NC(=O)[C@@H](N)CCCC[C@H](N)C(=O)N[C@@H](Cc1ccc(O)cc1)C(=O)N[C@@H](CCCN=C(N)N)C(=O)N[C@@H](CC(C)C)C(=O)N[C@@H](CCCN=C(N)N)C(=O)N[C@@H](Cc1ccc(O)cc1)C(N)=O)C(=O)N[C@@H](CCCN=C(N)N)C(=O)N[C@@H](Cc1ccc(O)cc1)C(N)=O` and report
0.05

Further cases:
Form field: reported Ki of CCC[C@H](NC(=O)[C@H](CCCNC(=N)N)NC(=O)[C@H](Cc1c[nH]c2ccccc12)NC(=O)[C@@H](N)CSSC[C@H](N)C(=O)N[C@@H](Cc1c[nH]c2ccccc12)C(=O)N[C@@H](CCCNC(=N)N)C(=O)N[C@@H](CCC)C(=O)N[C@@H](CCCNC(=N)N)C(=O)N[C@@H](Cc1ccc(O)cc1)C(N)=O)C(=O)N[C@@H](CCCNC(=N)N)C(=O)N[C@@H](Cc1ccc(O)cc1)C(N)=O (I: H-CWR[Nva]RY-NH2 / II: H-CWR[Nva]RY-NH2; disulfide I:1-II:1)
30
